- Assayed system: human α-thrombin (human, UniProt P00734 328-622)
- Test: cell-based or functional assay
Please note: IC50 (DCT), clotting assay, 37° C. exactly at 50 nM is No. Only values below 50 nM get Yes.

[
  {
    "Binder": "FDPRPQDHNDGDFEEIPEEYLQ (Synthetic) [FD22-D]",
    "Group": "No"
  },
  {
    "Binder": "WDPRPQRHNDGDFEEIPEEYLQ (Synthetic) [WD22-R]",
    "Group": "Yes"
  },
  {
    "Binder": "FDPRPQKHNDGDFEEIPEEYLQ [FD22-K]",
    "Group": "No"
  },
  {
    "Binder": "FHPRPQSHNDGDFEEIPEEYLQ [FH22]",
    "Group": "No"
  },
  {
    "Binder": "FEPRPQSHNDGDFEEIPEEYLQ [FE22]",
    "Group": "No"
  },
  {
    "Binder": "FNPRPQIHNDGDFEEIPEEYLQ [FN22-I]",
    "Group": "Yes"
  },
  {
    "Binder": "WDPRPQSRNDGDYEPIPEEYLQ [WD22-SR-YP]",
    "Group": "Yes"
  }
]
